- EXPERIMENT_DESCRIPTION: yeast display, Sf9 membrane polyspecificity reagent, FACS + sequencing; frameworks hold sequencing errors
ASSAY_READOUT: polyreactivity (PSR sort gate)

Examples with answers:
[[record]]
item_sequence = "QVQLVESGGGLVQAGGSLRLSCAASGITFYSNAMGWYRQAPGKERELVATITRGGSTYYADSVKGRFTISRDNAKNTVYLQMNSLKPEDTAVYYCAADYSYRGREYGYWGQVTQVTVSS"
assay_readout = "polyreactivity (PSR sort gate)"
experimental_value = "low polyreactivity"

[[record]]
item_sequence = "QVQLVESGGGLVQAGGSLRLSCAASGRTFLQYAMGWYRQAPGKERELVAANTTSGGDTYYADSVKGRFTISRDNAKNTVYLQMNSMKPDDTAVYYCNAAFRVYIPHVPYFVDFDYWGQGTQVTLSS"
assay_readout = "polyreactivity (PSR sort gate)"
experimental_value = "low polyreactivity"

[[record]]
item_sequence = "QVQLVDSGGGLVQAGGSLRLSCAASGFIFIRNARGWYRQAPGKESQLVAAIRYRGGNTYYADSVKGRFTISRDNAKNTVYLQMNSLKPEDTAVYYCNAAGSYYTRSDSGYWGQGTQVTVSS"
assay_readout = "polyreactivity (PSR sort gate)"
experimental_value = "high polyreactivity"

[[record]]
item_sequence = "QDHLVETGGGLVQAGGSLRLSCAASGRTLYINAMGWYRQAPGKERELVAAIRRGGSTYADSVKGRFTISRDNAKNTVYLQMNRLKPEDTAVYYCAADVPSGKYKGDYWGQGTQVTVSS"
assay_readout = "polyreactivity (PSR sort gate)"
experimental_value = "high polyreactivity"

[[record]]
item_sequence = "QVQLVESGGGLVQAGGSLRLSCAASGLIFDRYPMGWYRQAPGKERELVAAINRSGGTTYYADSVKGRFTISRDNAKNTVYLQMNSLKPEDTAVYYCAARWQRYRSGTGDYWGQGTQVTVSS"
assay_readout = "polyreactivity (PSR sort gate)"
experimental_value = "high polyreactivity"


Need polyreactivity (PSR sort gate) of QVQLVESGGGLVQAGGSLRLSCADSGSIFGSYATGWYRQAPGKERELVAAITYSGTSTYYADSVKGRFTISRDTAKNTVYLQMNRLKPEDTAVYYCAKRHWFQYRRPDLGRFDYWGQGTQVTVSS , thanks. high polyreactivity

Need polyreactivity (PSR sort gate) of QVQLVESGGGLVQAGGSLRLSCAASGRTFGTYAMGWYRQAPGKERELVAAITSGTRTYYADSVKGRFTISRDNAKNTVYLQMNSLKPEDTAVYDCAAGLVYRWSSTPRRLYYYWGQGTQVTVSS , thanks. high polyreactivity

Need polyreactivity (PSR sort gate) of QVHLVESGGGLVQAGGSLRLSCAASGRIFKTYAMRWYRQAPGKERELVAAITASGGRTYDADSVKGRFTISRDNAKNTVYLQMNSLTPEDSAVYYCAAPLLRDLRSPYYYNYWGQGTQVTVSS , thanks. low polyreactivity

Need polyreactivity (PSR sort gate) of QVQLVESGGGLVQAGGSLRLSCAASGLTFVTYVMGWYRLAPGKERELVAAISYSGGSTYYADSVKARFTISRDNAKNTVYLLMNSLKPEDTAVYYCAAEWYGYEEDDYWGQGTQVTVSS , thanks. low polyreactivity

Need polyreactivity (PSR sort gate) of QVQLVESGGGLVQAGGSLRLSCAASGSIFSTYAMGWYRQAPGKERELVASITSTGGSTYYADSVKGRFTISRDNAKNTVYLQMNSLKPEDTAVYYCAARYRRTHRYYYAYSTMDYWGQGTQVTVSS , thanks. high polyreactivity

Need polyreactivity (PSR sort gate) of QVQLQESGCGLVQAGGSLRLSCAASGYISSWYPMGWYRQAPGKEREFVATIAPGATTYYADSVKGRFTISRDYSINTVYLQMNSLKPEDTAVYYCAAGPENNDFYSYWGQGTQVTVSS , thanks. low polyreactivity

Need polyreactivity (PSR sort gate) of QVQLVESGRGLVQAGGSLRLSCAASGSIFGRNAMGWYRQAPGKERELVAAITWRGGRTYYADSVKGRFTISRDNAKNTVYLQMNSLKPEDTAVYYCAAVVAYQYTGYRFDYWGQGTQVTVSS , thanks. high polyreactivity

Need polyreactivity (PSR sort gate) of QVQLVESGGGLVQAGGSLRLSCAASGSIFPSYAMGWYRPAPGIERELVAAINWDGGSTFYADSVKGRFTISRDNAKNTVYLQMNSLKPEDTAVYYCAKYTYQEIRNVGRRGHYYWGQGTQVTVSS , thanks. low polyreactivity

Need polyreactivity (PSR sort gate) of QVQLVESGGGLVQAGGSLRLSCAASGRTFISNTMGWYRQAPGKERELVAALSGSGGSTYYADSVKGRFTISRDNAKNSVYLNMNRLKPEDTAVYYCNAPYVRQTRFGQSVRNNYWGQGTQVTVSS , thanks. high polyreactivity

Need polyreactivity (PSR sort gate) of QVQLVESGGGLVQAGGSLRLSCAASGFTFYGNAMGWYSQAPGKERELVAAISSGGSTNYADSVKGRFTISRDNAQNTVSLQMNSLKPEDTAVYYCAASSPRQVSFPYASIGFDYWGQGTQVTVSS , thanks. low polyreactivity

Need polyreactivity (PSR sort gate) of QVQLVESGGGLVQAGGSLRLSCAASGRIFGPYAMGWYRQAPGKERELVAAIRASSSSTYYADSVKGRFTISRDNAKNTVYVQMNSLKPEDTAVYYCAADWYYGYAWKYGYWGQGTQVTVSS , thanks. low polyreactivity

Need polyreactivity (PSR sort gate) of QVQLVESGGGLVQAGGSLRLSCAASGRIFPGYTMGWYRQAPGKERELVAGISRSGGRTYYADSVKGRFTISRDNAKNTVYLQMNSLKPEDTAVYYCADDGYPGRRYTGMDYWGQGTQVTVSS , thanks. high polyreactivity

Need polyreactivity (PSR sort gate) of QVQLVESGGGIVQAGGSLRLSCAASGFLYFFYAMGWYRQAPRKQRELVAANSDGVSTYYADSVKGRFTISRDNAKNTVYLQMNSLKPEDTAVFYCAVSRGDDPEFDYWGQCTQVTVSS , thanks. low polyreactivity

Need polyreactivity (PSR sort gate) of QVHLVESGGGLVQAGGSLRLSCAASGRTFRYYAMGWYRQAPGKERELVASISSTGGNTYYADSVKGRFTISRDNAKNTVYLQMNSLKPEDTAVYYCAAGAWTRGQYYYWGQGTQVTVSS , thanks. high polyreactivity

Need polyreactivity (PSR sort gate) of QVHLVESGGGLVQAGGSLRLSCAASGRIFAGYARGWYRQAPGKERELVAAISDGGTTNYADSVKGRFTISRDNAKNTVYLQMNSLKPEDTAVYYGAKDAAESYRYGYWGQGTQVSVSS , thanks. low polyreactivity

Need polyreactivity (PSR sort gate) of QVQLVESGGGLVQAGGSLRLSCAASGSIFKRNDMGWYRQAPGKDRELVASISSGGSTHYADSVKGRFTISRDNAKNTVSLQMNSLKPEDTAVYYCAATSIRWSVGSFRRDYWGQGTQVTVSS , thanks. low polyreactivity
